Entries annotated with measured EC50
- Test system: HT-29
- Procedure Details: Cytotoxicity against human HT-29 cells after 6 days by MTT assay
- Assay type: functional
- Measurement Setup: HT-29, 144 h, read-out: ED50 (the source's name)
Observable: EC50

| Molecule | Result Value |
| --- | --- |
| C=C(C)C1CC[C@@]2(C)CCC[C@@](C)(OC(C)=O)[C@@H]2C1 (stereo partly drawn) | > 50 µg/mL |
| C=C(C)C1CC[C@@]2(C)CCC[C@@](C)(O)[C@@H]2C1 (stereo partly drawn) | > 50 µg/mL |
| C=C[C@]1(C)CC[C@H](C(=C)C)C[C@@H]1C(=C)C | > 50 µg/mL |
